Test system: Plasmodium falciparum
Assay: MMV: P. falciparum NF54 functionally mature Stage V gametocytes were incubated for 24 hr in the presence of the test compounds. Gamete formation was then triggered by addition of 2uM xantheurenic acid and temperature decrease to ~20C. Male gamete exflagellation was recorded and analysed by automated microscopy after 20 min. All compounds were tested in 4 independent experiments and data presented here is the mean.
Type: functional
Design: concentration or dose not given beside the values
Binary classification by inhibition, with 20% as an inclusive lower bound for yes (1); all other cases are no (0).

{"columns": ["Compound", "Qualitative Label"],
 "data": [
  ["CCCCCCOC(=O)C1=C(C)NC(=O)NC1c1ccccc1F (configuration not stated)", "no (0)"],
  ["CCN(CC)CCNc1ncnc2c1[nH]c1ccc(Cl)cc12", "no (0)"],
  ["O=C(NC1CCN(Cc2ccccc2)CC1)c1cc(-c2ccncc2)nc2ccc(Cl)cc12", "no (0)"],
  ["COc1cc(SC)ccc1C(=O)N1CCCC(C)C1 (configuration not stated)", "yes (1)"],
  ["Oc1ccc(-c2nc(-c3ccc4oc5ccc(-c6[nH]c(-c7ccc(O)cc7)nc6-c6ccccc6)cc5c4c3)c(-c3ccccc3)[nH]2)cc1", "no (0)"],
  ["CCCCC(O)(c1ccc(Cl)cc1)C(CN1CCOCC1)c1ccc(Cl)cc1.Cl (configuration not stated)", "no (0)"],
  ["OC1CCCCC1C1(NC(=S)Nc2ccccc2)CCCCC1 (configuration not stated)", "yes (1)"],
  ["O=C(Nc1ccc(C23CC4CC(CC(c5ccccc5)(C4)C2)C3)cc1)c1cccs1", "no (0)"],
  ["c1ccc2cc3c(Nc4ccc(N5CCOCC5)cc4)ccnc3cc2c1", "no (0)"],
  ["CCOC(=O)c1cn(CC)c2cc(N(C)CCc3ccc(OC)c(OC)c3)c(F)cc2c1=O", "yes (1)"],
  ["O=C(NC1CCN(Cc2ccccc2)CC1)c1cc(C(=O)NC2CCN(Cc3ccccc3)CC2)cc(C(=O)NC2CCN(Cc3ccccc3)CC2)c1", "yes (1)"],
  ["Nc1ccc(-c2nc3cc(Oc4ccc(Oc5ccc6[nH]c(-c7ccc(N)cc7)nc6c5)cc4)ccc3[nH]2)cc1", "no (0)"],
  ["CCOC(=O)c1cnc2c(C)cccc2c1Nc1ccc(C(C)=O)cc1", "no (0)"],
  ["COc1cccc(O)c1CN1CCC2(CCCN(Cc3ccc(F)cc3)C2)C1 (configuration not stated)", "no (0)"],
  ["CCCCCCC(O)(c1ccc(F)cc1)C(CN1CCOCC1)c1ccccc1.Cl (configuration not stated)", "no (0)"],
  ["COc1cccc(NC(=O)Cn2c(C)c(C#N)c3ccccc32)c1", "yes (1)"],
  ["COc1cc(-c2nc(-c3ccc(Sc4ccccc4)cc3)c(-c3ccccc3)[nH]2)cc(OC)c1O", "no (0)"],
  ["CCOc1ccccc1CN1CCc2nc3cc(C(C)(C)C)nn3c(O)c2C1", "no (0)"],
  ["Cc1ccc(Nc2nc(N)c3ccccc3n2)cc1Cl", "no (0)"],
  ["CSC1=NC(=Nc2c(C)cccc2C)C2(CCC(C(C)(C)C)CC2)N1c1ccc(Cl)cc1 (configuration not stated)", "no (0)"],
  ["COc1ccc2nc(C)cc(Nc3ccccc3O)c2c1", "no (0)"],
  ["COc1cccc(Nc2nc(N)c3ccccc3n2)c1.Cl", "no (0)"],
  ["Br.Cc1ccc(C)c(-c2csc(Nc3ccc(C)c(C)c3)n2)c1", "yes (1)"],
  ["COc1cc(OC)c(N(C)C(=O)c2cc3c(s2)-c2ccccc2S(=O)(=O)C3)cc1Cl", "no (0)"],
  ["COc1cc(OC)cc(N2C(=O)N(Cc3ccc(C(C)(C)C)cc3)c3ccccc3S2(=O)=O)c1", "no (0)"],
  ["CCCc1cc(O)c2c3c(c(=O)oc2c1)CN(C)CC3", "no (0)"],
  ["CCOC(=O)c1c(NC(=O)c2ccccc2)sc2c(O)c(CN(CC)CC)ccc12", "yes (1)"],
  ["COc1ccc(-c2nc(N3CCN(C(=O)C4CCCCC4)CC3)c3c4c(sc3n2)CCCC4)cc1", "no (0)"],
  ["CCOc1cc2c(cc1OCC)C(c1cc(C)c(O)c(C)c1)NCC2.Cl (configuration not stated)", "no (0)"],
  ["O=C(Nc1ccccc1O)c1ccc(Oc2cccc(C(=O)Nc3ccccc3O)c2)cc1", "no (0)"],
  ["O=C(Cc1ccccc1)NC(c1ccc(Cl)cc1)c1c(O)ccc2ccccc12 (configuration not stated)", "yes (1)"]
]}
